Assay Method Text: log p (partition coefficient octanol/water, determined experimentally from reversed phase HPLC)
Type: physicochemical
Experimental Parameters: reversed phase hplc, E isomer
Measured Endpoint: chromatographic logP

The compound listed as CO/N=C(/COc1ccc(-c2ccc(C3COC(c4c(F)cccc4F)=N3)cc2)cc1)C1CC1 (stereo not shown) has a reported chromatographic logP of 4.9

---

Assay Method Text: log p (partition coefficient octanol/water, determined experimentally from reversed phase HPLC)
Format: physicochemical
Experimental Parameters: reversed phase hplc
Each entry below carries its reported chromatographic logP.

• CC(=O)C(C)(C)Oc1ccc(-c2ccc(C3COC(c4ccccc4Cl)=N3)cc2)cc1 (centres unmarked) [Example 152] = 4.56
• CCOC(=O)C(CC)Oc1ccc(-c2ccc(C3COC(c4c(F)cccc4F)=N3)cc2)cc1 (centres unmarked) [Example 11] = 4.53
• CCOC(CCOc1ccc(-c2ccc(C3COC(c4c(F)cccc4F)=N3)cc2)cc1)OCC (centres unmarked) [Example 16] = 4.74
• CON=C(C)C(C)(C)Oc1ccc(-c2ccc(C3COC(c4ccccc4Cl)=N3)cc2)cc1Cl (centres unmarked) [Example 175] = 6.06

The compound listed as CC(=NOC(C)C)C(C)Oc1ccc(-c2ccc(C3COC(c4c(F)cccc4F)=N3)cc2)cc1 (centres unmarked) [Example 69] has a reported chromatographic logP of 4.47

The compound listed as CON=C(c1cccc(C(F)(F)F)c1)C(C)Oc1ccc(-c2ccc(C3COC(c4c(F)cccc4F)=N3)cc2)cc1 (centres unmarked) [Example 106] has a reported chromatographic logP of 5.5

The compound listed as CCOC(CCOc1ccc(-c2ccc(C3COC(c4c(F)cccc4F)=N3)cc2)cc1Cl)OCC (centres unmarked) [Example 97] has a reported chromatographic logP of 5.12

The compound listed as CCON=C(C)C(C)(C)Oc1ccc(-c2ccc(C3COC(c4c(F)cccc4F)=N3)cc2)cc1Cl (centres unmarked) [Example 171] has a reported chromatographic logP of 5.05

---

Assay Method Text: log p (partition coefficient octanol/water, determined experimentally from reversed phase HPLC)
Assay type: physicochemical
Experimental Parameters: reversed phase hplc
Each entry below carries its reported chromatographic logP.
No unit in the answer, please; the number alone is enough.

- CCON=C(C)COc1ccc(-c2ccc(C3COC(c4c(F)cccc4Cl)=N3)cc2)cc1 (stereo not shown) [Example 81]: 4.98
- CC(C)C(C#N)Oc1ccc(-c2ccc(C3COC(c4c(F)cccc4F)=N3)cc2)cc1Cl (stereo not shown) [Example 102]: 4.84
- CCCCC(Oc1ccc(-c2ccc(C3COC(c4c(F)cccc4F)=N3)cc2)cc1)C(=O)OCC (stereo not shown) [Example 61]: 5.24

The record that follows has no chromatographic logP shown yet.
The molecule listed as CCON=C(C)C(C)(C)Oc1ccc(-c2ccc(C3COC(c4ccccc4Cl)=N3)cc2)cc1Cl (stereo not shown) [Example 176] has a reported chromatographic logP of 6.49

---

Assay Method Text: log p (partition coefficient octanol/water, determined experimentally from reversed phase HPLC)
Assay type: physicochemical
Experimental Parameters: reversed phase hplc, B isomer
Could you label it 1 (yes) if measured chromatographic logP is 5 or higher, and 0 (no) otherwise?

* CCON=C(COc1ccc(-c2ccc(C3COC(c4c(F)cccc4F)=N3)cc2)cc1)c1cc(Cl)ccc1Cl (centres unmarked) | 1 (yes)
* CC(=NO)C(C)(C)Oc1ccc(-c2ccc(C3COC(c4c(F)cccc4F)=N3)cc2)cc1 (centres unmarked) | 0 (no)
* CCON=C(C)COc1ccc(-c2ccc(C3COC(c4c(F)cccc4F)=N3)cc2)cc1 (centres unmarked) | 0 (no)
* C=CCON=C(C)C(C)Oc1ccc(-c2ccc(C3COC(c4ccccc4Cl)=N3)cc2)cc1 (centres unmarked) | 1 (yes)
* CON=C(C)COc1ccc(-c2ccc(C3COC(c4c(F)cccc4F)=N3)cc2)cc1Cl (centres unmarked) | 0 (no)

Now consider a different compound.
API: above_or_equal(metric=chromatographic logP, cutoff=5) for item CC(=NOC(C)C)C(C)Oc1ccc(-c2ccc(C3COC(c4c(F)cccc4F)=N3)cc2)cc1Cl (centres unmarked)
1 (yes)

---

Each entry below carries its reported chromatographic logP.
Assay Method Text: log p (partition coefficient octanol/water, determined experimentally from reversed phase HPLC)
Type: physicochemical
Experimental Parameters: reversed phase hplc

- CCON=C(COc1ccc(-c2ccc(C3COC(c4c(F)cccc4F)=N3)cc2)cc1)C(C)(C)C (stereo not shown): 5.95

The compound listed as O=C(COc1ccc(-c2ccc(C3COC(c4c(F)cccc4F)=N3)cc2)cc1)c1ccc(OC(F)F)cc1 (stereo not shown) has a reported chromatographic logP of 4.16

The compound listed as CON=C(COc1ccc(-c2ccc(C3COC(c4c(F)cccc4F)=N3)cc2)cc1)c1ccccc1 (stereo not shown) has a reported chromatographic logP of 5.01

The compound listed as CC(C)(C(=O)COc1ccc(-c2ccc(C3COC(c4c(F)cccc4F)=N3)cc2)cc1)C(Cl)Cl (stereo not shown) has a reported chromatographic logP of 4.55

---

Assay Method Text: log p (partition coefficient octanol/water, determined experimentally from reversed phase HPLC)
Format: physicochemical
Experimental Parameters: reversed phase hplc, A isomer
Measured Endpoint: chromatographic logP
No unit in the answer, please; the number alone is enough.

• CON=C(COc1ccc(-c2ccc(C3COC(c4c(F)cccc4F)=N3)cc2)cc1)c1cccc(C(F)(F)F)c1 (stereo not drawn) = 5.8
• CCON=C(C)C(C)Oc1ccc(-c2ccc(C3COC(c4ccccc4Cl)=N3)cc2)cc1 (stereo not drawn) = 5.44
• CCON=C(COc1ccc(-c2ccc(C3COC(c4c(F)cccc4F)=N3)cc2)cc1)C1(Cl)CC1 (stereo not drawn) = 5.49
• C=CCON=C(C)C(C)Oc1ccc(-c2ccc(C3COC(c4c(F)cccc4F)=N3)cc2)cc1 (stereo not drawn) = 5.04
• CON=C(COc1ccc(-c2ccc(C3COC(c4c(F)cccc4F)=N3)cc2)cc1)c1ccc(C)cc1 (stereo not drawn) = 5.07

The compound listed as CON=C(COc1ccc(-c2ccc(C3COC(c4c(F)cccc4F)=N3)cc2)cc1)C1(Cl)CC1 (stereo not drawn) has a reported chromatographic logP of 5.09

The compound listed as CON=C(COc1ccc(-c2ccc(C3COC(c4c(F)cccc4F)=N3)cc2)cc1)c1ccccc1 (stereo not drawn) has a reported chromatographic logP of 4.74

The compound listed as CC(=NOC(C)C)C(C)Oc1ccc(-c2ccc(C3COC(c4c(F)cccc4Cl)=N3)cc2)cc1 (stereo not drawn) has a reported chromatographic logP of 6.15

---

Each entry below carries its reported chromatographic logP.
Assay Method Text: log p (partition coefficient octanol/water, determined experimentally from reversed phase HPLC)
Format: physicochemical
Experimental Parameters: reversed phase hplc, A isomer
No unit in the answer, please; the number alone is enough.

These recorded examples may help you get a feel for the data.
- CCON=C(COc1ccc(-c2ccc(C3COC(c4c(F)cccc4F)=N3)cc2)cc1)c1ccc(Cl)c(C)c1 (stereo not shown) [Example 141]: 5.93
- CON=C(COc1ccc(-c2ccc(C3COC(c4c(F)cccc4F)=N3)cc2)cc1)c1ccc(Cl)c(C)c1 (stereo not shown) [Example 140]: 5.57
- CON=C(COc1ccc(-c2ccc(C3COC(c4c(F)cccc4F)=N3)cc2)cc1)c1ccc(OC)cc1 (stereo not shown) [Example 149]: 4.7

The compound listed as CCON=C(CC)COc1ccc(-c2ccc(C3COC(c4c(F)cccc4F)=N3)cc2)cc1 (stereo not shown) [Example 66] has a reported chromatographic logP of 4.98

---

Assay Method Text: log p (partition coefficient octanol/water, determined experimentally from reversed phase HPLC)
Type: physicochemical
Experimental Parameters: reversed phase hplc
Measured Endpoint: chromatographic logP
No unit in the answer, please; the number alone is enough.

These recorded examples may help you get a feel for the data.
- CC1(COc2ccc(-c3ccc(C4COC(c5c(F)cccc5F)=N4)cc3)cc2)OCCO1 (stereo not shown): 3.77
- CON=C(C)C(C)(C)Oc1ccc(-c2ccc(C3COC(c4c(F)cccc4Cl)=N3)cc2)cc1 (stereo not shown): 5.45
- CCOC(=O)C(C)Oc1ccc(-c2ccc(C3COC(c4c(F)cccc4F)=N3)cc2)cc1 (stereo not shown): 4.12
- CON(C)C(=O)COc1ccc(-c2ccc(C3COC(c4c(F)cccc4F)=N3)cc2)cc1 (stereo not shown): 3.07
- CC(=O)C(C)(C)Oc1ccc(-c2ccc(C3COC(c4ccccc4Cl)=N3)cc2)cc1Cl (stereo not shown): 5.02

The compound listed as CC(=O)C(C)(C)Oc1ccc(-c2ccc(C3COC(c4c(F)cccc4F)=N3)cc2)cc1Cl (stereo not shown) has a reported chromatographic logP of 4.61

The compound listed as CCOC(COc1ccc(-c2ccc(C3COC(c4c(F)cccc4F)=N3)cc2)cc1)OCC (stereo not shown) has a reported chromatographic logP of 4.44

The compound listed as CON=C(COc1ccc(-c2ccc(C3COC(c4ccccc4Cl)=N3)cc2)cc1)c1ccccc1 (stereo not shown) has a reported chromatographic logP of 5.4

The compound listed as CCCC(C#N)Oc1ccc(-c2ccc(C3COC(c4c(F)cccc4F)=N3)cc2)cc1Cl (stereo not shown) has a reported chromatographic logP of 4.87

The compound listed as CON=C(C)C(C)(C)Oc1ccc(-c2ccc(C3COC(c4c(F)cccc4F)=N3)cc2)cc1Cl (stereo not shown) has a reported chromatographic logP of 5.61

The compound listed as CCON=C(C)C(C)(C)Oc1ccc(-c2ccc(C3COC(c4c(F)cccc4F)=N3)cc2)cc1 (stereo not shown) has a reported chromatographic logP of 5.57

The compound listed as CC(C)(C)OC(=O)COc1ccc(-c2ccc(C3COC(c4c(F)cccc4F)=N3)cc2)cc1 (stereo not shown) has a reported chromatographic logP of 4.43
